# Test target: mutant MGL (Homo sapiens, UniProt Q99685, L169S/L176S)
# Construct: purified mutant MGL (mut-MGLL 11-313 L179S L186S)
# Sequence (Q99685 whole entry L169S/L176S): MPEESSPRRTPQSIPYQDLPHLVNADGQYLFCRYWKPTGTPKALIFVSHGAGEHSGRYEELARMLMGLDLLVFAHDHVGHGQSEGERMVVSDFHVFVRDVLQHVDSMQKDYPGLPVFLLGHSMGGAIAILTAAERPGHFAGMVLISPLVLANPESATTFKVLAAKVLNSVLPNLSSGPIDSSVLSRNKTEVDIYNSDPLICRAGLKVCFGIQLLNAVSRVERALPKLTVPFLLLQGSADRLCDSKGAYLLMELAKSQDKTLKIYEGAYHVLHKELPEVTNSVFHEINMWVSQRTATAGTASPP
# Assay summary: MGL ThermoFluor assay - mutant
# Type: binding
# Test conditions: compound concentration measured by qNMR; read-out: MGL mutant ThermoFluor qKd (using qNMR conc.)
# Description: The ThermoFluor (TF) assay is a 384-well plate-based binding assay that measures thermal stability of proteins^1,2. The experiments were carried out using instruments available from Johnson & Johnson Pharmaceutical Research & Development, LLC. TF dye used in all experiments was 1,8-ANS (Invitrogen: A-47). […] The Kd values for compounds of Formula (I) were determined from a fit of the equation to the concentration-response plot of the fractional activity as a function of Tm. […]
pKd: −log10 of the molar value.
pKd of 8 or higher: t. Under 8: f.

Compound: Cc1c(C(=O)N2CCC(C3CN(C(=O)c4cscn4)C3)CC2)sc2cc(C(F)(F)F)ccc12 [Cpd 61]
Test target: mutant MGL (Homo sapiens, UniProt Q99685, L169S/L176S)
Qualitative label: t
--
Compound: O=C(c1ccc2c(ccn2-c2ccc(F)c(F)c2)c1)N1CCC(C2CN(C(=O)c3ccc[nH]3)C2)CC1 [Cpd 80]
Test target: mutant MGL (Homo sapiens, UniProt Q99685, L169S/L176S)
Qualitative label: t
--
Compound: Cc1nc2cc(C(=O)N3CC(C4CCN(C(=O)c5nccs5)CC4)C3)ccc2n1CC(F)(F)F [Cpd 90]
Test target: mutant MGL (Homo sapiens, UniProt Q99685, L169S/L176S)
Qualitative label: f
--
Compound: Cc1cc(-n2ccc3cc(C(=O)N4CC(C5CCN(C(=O)c6nccs6)CC5)C4)ccc32)ccn1 [Cpd 95]
Test target: mutant MGL (Homo sapiens, UniProt Q99685, L169S/L176S)
Qualitative label: f
--
Compound: O=C(c1ccc(Cc2ccc(C(F)(F)F)cc2)cc1)N1CCC(C2CN(C(=O)c3cscn3)C2)CC1 [Cpd 64]
Test target: mutant MGL (Homo sapiens, UniProt Q99685, L169S/L176S)
Qualitative label: f
--
Compound: O=C(c1ccc2c(c1)[nH]c(=O)n2-c1ccccc1)N1CC(C2CCN(C(=O)c3nccs3)CC2)C1 [Cpd 96]
Test target: mutant MGL (Homo sapiens, UniProt Q99685, L169S/L176S)
Qualitative label: f
--
Compound: O=C(c1cscn1)N1CC(C2CCN(C(=O)c3sc4cc(C(F)(F)F)ccc4c3Cl)CC2)C1 [Cpd 70]
Test target: mutant MGL (Homo sapiens, UniProt Q99685, L169S/L176S)
Qualitative label: t
--
Compound: O=C(c1ccc2c(ccn2-c2ccc(F)cc2)c1)N1CCC(C2CN(C(=O)c3cscn3)C2)CC1 [Cpd 73]
Test target: mutant MGL (Homo sapiens, UniProt Q99685, L169S/L176S)
Qualitative label: t

###

# Test target: purified wild type MGL (wt-MGLL 6H-11-313) (Homo sapiens)

Molecular string: Cc1nc2cc(C(=O)N3CC(C4CCN(C(=O)c5nccs5)CC4)C3)ccc2n1CC(F)(F)F
Value units: µM
Censoring operator: =
IC50: 0.173
--
Molecular string: O=C(c1ccc(Cc2ccc(C(F)(F)F)cc2)cc1)N1CC(C2CCN(C(=O)c3cscn3)CC2)C1
Value units: µM
Censoring operator: <
IC50: 0.005
--
Molecular string: O=C(c1ccc(Cc2cccc(C(F)(F)F)c2)cc1)N1CCC(C2CN(C(=O)c3cscn3)C2)CC1
Value units: µM
Censoring operator: <
IC50: 0.005
--
Molecular string: Cc1nc2cc(C(=O)N3CC(C4CCN(C(=O)c5nccs5)CC4)C3)ccc2n1C1CCC(F)(F)CC1
Value units: µM
Censoring operator: =
IC50: 0.163

###

# Test target: purified wild type MGL (wt-MGLL 6H-11-313) (Homo sapiens)
Friendly reminder: IC50 below 10 nM is yes, at or above is no.

Molecule: O=C(c1ccc2c(ccn2-c2ccc(F)c(F)c2)c1)N1CCC(C2CN(C(=O)c3cscn3)C2)CC1 [Cpd 79]
Qualitative label: yes

Molecule: O=C(c1ccc2c(c1)[nH]c(=O)n2C1CCC(F)(F)CC1)N1CC(C2CCN(C(=O)c3nccs3)CC2)C1 [Cpd 101]
Qualitative label: no

Molecule: O=C(c1cccc(-c2cccc(F)c2)c1)N1CCC(C2CN(C(=O)c3cscn3)C2)CC1 [Cpd 52]
Qualitative label: no

Molecule: O=C(c1ccc(-c2ccc(C(F)(F)F)s2)cc1)N1CC(C2CCN(C(=O)c3nccs3)CC2)C1 [Cpd 18]
Qualitative label: no

Molecule: Cc1cc(-n2ccc3cc(C(=O)N4CC(C5CCN(C(=O)c6nccs6)CC5)C4)ccc32)ccn1 [Cpd 95]
Qualitative label: no

Molecule: O=C(c1ccc[nH]1)N1CCC(C2CN(C(=O)c3ccc(-c4ccccc4)cc3F)C2)CC1 [Cpd 21]
Qualitative label: no

Molecule: O=C(c1ccc(Cc2ccc(C(F)(F)F)cc2)cc1)N1CCC(C2CN(C(=O)c3cscn3)C2)CC1 [Cpd 64]
Qualitative label: yes

Molecule: O=C(c1ccc(-c2ccc(C(F)(F)F)s2)cc1)N1CCC(C2CN(C(=O)c3cscn3)C2)CC1 [Cpd 55]
Qualitative label: no

###

# Test target: mutant MGL (Homo sapiens, UniProt Q99685, L169S/L176S)
# Construct: purified mutant MGL (mut-MGLL 11-313 L179S L186S)
# Assay summary: MGL ThermoFluor assay - mutant
# Assay type: binding
# Test conditions: compound concentration measured by qNMR; read-out: MGL mutant ThermoFluor qKd (using qNMR conc.)
pKd: −log10 of the molar value.
Reported endpoint: pKd

Molecular string: O=C(c1ccc(-c2cccc(C(F)(F)F)c2)cc1)N1CCC(C2CN(C(=O)c3ccc[nH]3)C2)CC1
Numeric result: 9.00
//
Molecular string: O=C(c1ccc2c(c1)ncn2CCC(F)(F)F)N1CC(C2CCN(C(=O)c3nccs3)CC2)C1
Numeric result: 7.19
//
Molecular string: O=C(c1ccc(Cc2cccc(C(F)(F)F)c2)cc1)N1CCC(C2CN(C(=O)c3ccc[nH]3)C2)CC1
Numeric result: 8.03
//
Molecular string: O=C(c1ccc2nc(-c3ccccc3)oc2c1)N1CC(C2CCN(C(=O)c3ccc[nH]3)CC2)C1
Numeric result: 7.02
//
Molecular string: O=C(c1ccc2c(c1)[nH]c(=O)n2C1CCC(F)(F)CC1)N1CC(C2CCN(C(=O)c3nccs3)CC2)C1
Numeric result: 8.41
//
Molecular string: Cc1c(C(=O)N2CCC(C3CN(C(=O)c4ccc[nH]4)C3)CC2)sc2cc(C(F)(F)F)ccc12
Numeric result: 9.22
//
Molecular string: O=C(c1nccs1)N1CCC(C2CN(C(=O)c3sc4cc(C(F)(F)F)ccc4c3Cl)C2)CC1
Numeric result: 8.92
//
Molecular string: O=C(c1ccc2c(ccn2-c2ccc(C(F)(F)F)cc2)c1)N1CCC(C2CN(C(=O)c3cscn3)C2)CC1
Numeric result: 8.08
//
Molecular string: Cc1nc2cc(C(=O)N3CC(C4CCN(C(=O)c5nccs5)CC4)C3)ccc2n1C1CCC(F)(F)CC1
Numeric result: 8.47
//
Molecular string: O=C(c1ccc2c(c1)[nH]c(=O)n2-c1ccc(C(F)(F)F)cc1)N1CC(C2CCN(C(=O)c3nccs3)CC2)C1
Numeric result: 7.78
//
Molecular string: Cc1c(C(=O)N2CC(C3CCN(C(=O)c4nccs4)CC3)C2)sc2cc(C(F)(F)F)ccc12
Numeric result: 8.89
//
Molecular string: O=C(c1ccc(-c2cccc(C(F)(F)F)c2)cc1)N1CCC(C2CN(C(=O)c3nccs3)C2)CC1
Numeric result: 9.00
//
Molecular string: O=C(c1ccc2c(c1)ncn2CC(F)(F)F)N1CC(C2CCN(C(=O)c3nccs3)CC2)C1
Numeric result: 7.18
//
Molecular string: O=C(c1cscn1)N1CC(C2CCN(C(=O)c3ccc(-c4ccccc4)cc3F)CC2)C1
Numeric result: 7.70

###

# Test target: MGL (Rattus norvegicus)
# Construct: one g rat brain was homogenized; from tissue; host or cells: rat brain homogenate
# Assay summary: 2-AG accumulation assay in rat brain homogenate
# Assay type: biochemical
# Test conditions: compound @1 μM, read-out: Rat Brain 2AG % VehCntrl (%) @1 μM
Recorded 2-AG accumulation, percent of vehicle control at 1 µM by entry
Reported endpoint: 2-AG accumulation, percent of vehicle control at 1 µM (%)

Molecular string: O=C(c1ccc2nc(-c3ccccc3)oc2c1)N1CCC(C2CN(C(=O)c3cscn3)C2)CC1
Test target: MGL (Rattus norvegicus)
Value units: %
Numeric result: 590

Molecular string: O=C(c1ccc2c(ccn2-c2ccc(F)c(F)c2)c1)N1CCC(C2CN(C(=O)c3cscn3)C2)CC1
Test target: MGL (Rattus norvegicus)
Value units: %
Numeric result: 946

Molecular string: O=C(c1ccc2c(ccn2-c2ccc(F)c(F)c2)c1)N1CC(C2CCN(C(=O)c3ccc[nH]3)CC2)C1
Test target: MGL (Rattus norvegicus)
Value units: %
Numeric result: 107

Molecular string: O=C(c1ccc(Cc2ccc(C(F)(F)F)cc2)cc1)N1CC(C2CCN(C(=O)c3cscn3)CC2)C1
Test target: MGL (Rattus norvegicus)
Value units: %
Numeric result: 696

All figures here come from patent US8513423B2.
